assay: fluorescence interference in NS3h assay format, artefact control for HCV NS3 helicase inhibitor project, biochemical, NIH Clinical Collection (AID 743272); settings: fluorescence interference counterscreen, stronger effect = lower value;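 also: HCV NS3 helicase with a Cy5 labelled single stranded DNA probe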
So basically, if fluorescence ratio comes in under 1 it's satisfied, and if it's 1 or more it's not satisfied.

> print(dat)
                                    compound      classname
 1  CC(O)(CS(=O)(=O)c1ccc(F)cc1)C(=O)Nc1ccc(C#N)c(C(F)(F)F)c1 (stereo not drawn)      satisfied
 2  CCOC(=O)C1(c2ccccc2)CCN(CCC(C#N)(c2ccccc2)c2ccccc2)CC1      satisfied
 3  CC(C)[C@]12O[C@H]1[C@@H]1O[C@]13[C@]1(O[C@H]1C[C@H]1C4=C(CC[C@@]13C)C(=O)OC4)[C@@H]2O  not satisfied
 4                   COc1ccc2[nH]cc(CCN)c2c1      satisfied
 5      O[C@@H]1CCCC[C@H]1N1CCC(c2ccccc2)CC1      satisfied
 6  CN1C(=O)CN=C(c2ccccc2)c2cc([N+](=O)[O-])ccc21  not satisfied
 7                        c1ccc(Cn2ccnc2)cc1      satisfied
 8  Clc1ccc(COC(Cn2ccnc2)c2ccc(Cl)cc2Cl)c(Cl)c1 (stereo not drawn)      satisfied
 9  C=CCN1CC[C@]23c4c5ccc(O)c4O[C@H]2C(=O)CC[C@@]3(O)[C@H]1C5  not satisfied
10                         COc1ccc(CCN)cc1OC      satisfied
11                        NC(=O)OCCCc1ccccc1  not satisfied
12  CN(C)[C@@H]1C(=O)C(C(N)=O)=C(O)[C@@]2(O)C(=O)C3=C(O)c4c(O)cccc4[C@@](C)(O)[C@H]3[C@H](O)[C@@H]12      satisfied
13  Oc1ccc2c3c1OC1C(O)CC[C@@]4(O)[C@@H](C2)N(CC2CCC2)CC[C@]314 (stereo partly drawn)      satisfied
14  CN1CC[C@@]23CCCC[C@@H]2[C@@H]1Cc1ccc(O)cc13      satisfied
15  O=C1Nc2ccc(Cl)cc2C(c2ccccc2Cl)=NC1O (stereo not drawn)      satisfied
16  C=C(C)CN1CC[C@]23c4c5ccc(O)c4O[C@H]2c2[nH]c4ccccc4c2C[C@@]3(O)C1C5      satisfied
17  COc1cc(N)c(Cl)cc1C(=O)NC1CN2CCC1CC2 (stereo not drawn)      satisfied
18  C[C@]12CC[C@H]3[C@@H](CCC4=CC(=O)CC[C@@]43C)[C@@H]1CC[C@@H]2O      satisfied
19  CN[C@@H]1C[C@@H](c2ccc(Cl)c(Cl)c2)c2ccccc21      satisfied
20                  c1ccc2c3c([nH]c2c1)CNCC3      satisfied

----------
test: growth inhibition of DIPG glioma cells, dose response, cell-based, SU-DIPG-XIII, MIPE5.0, CellTiter-Glo, qHTS (AID 1347064); conditions: SU-DIPG-XIII viability, CellTiter-Glo ATP luminescence;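 as to AC50: cells exposed to compound for 48 hours before the viability read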
Results filed as inconclusive are left out. Activity calls are given as the source filed them. Cut-off not given; nearly all actives show AC50 up to about 23 µM.
Outcomes: 1 for active, -1 for inactive

> print(dat)
                                   compound  classname
1  COC[C@H]1OC(=O)c2coc3c2[C@@]1(C)C1=C(C3=O)[C@@H]2CC[C@H](O)[C@@]2(C)C[C@H]1OC(C)=O          1
2  O=C(N[C@@H](COc1ccc2[nH]c(=O)[nH]c2c1)c1ccccc1)c1cccn(Cc2ccc(F)c(F)c2)c1=O         -1
3  CC(N[C@H]1C[C@@H]1c1ccccc1)c1ccc2c(c1)OCCO2 (stereo partly drawn)         -1
4  C[C@H]1CCC/C=C/C2C[C@H](O)C[C@H]2[C@H](O)/C=C/C(=O)O1 (stereo partly drawn)          1
5  CC(C)[C@]12O[C@H]1[C@@H]1O[C@@]13[C@@]1(C)CCC4=C(COC4=O)[C@@H]1C[C@@H]1O[C@@]13C2=O          1
6  O=C(Oc1ccc([N+](=O)[O-])cc1)N1CCN(Cc2cccc(Oc3ccccc3)c2)CC1         -1
7  COc1ccc(C(=O)c2c(C)n(CCN3CCOCC3)c3cc(I)ccc23)cc1          1
8  C=C(C)[C@H]1Cc2c(ccc3c2O[C@@H]2COc4cc(OC)c(OC)cc4[C@@H]2C3=O)O1          1
